Listed compounds paired with reported composite z-score
Tested on: Noggin (protein binding on small-molecule microarray)
METHOD NOTES: Noggin binders on small-molecule microarray, primary screen, biochemical, 635/667 nm fluorescence (AID 1095);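 note: score merges 667 nm feature fluorescence with signal to noise over triplicate slides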
MEASUREMENT PARAMETERS: 635 nm fluorescence, higher = more signal
Form: value (number only, do not type unit).

Look at this compound and give its reported composite z-score. `Cc1ccc(N2C(=O)c3ccccc3[C@@H](C(=O)NCC(F)(F)F)[C@@H]2c2ccc(CO)cc2)nc1`
-2.15

Look at this compound and give its reported composite z-score. `COCCCNC(=O)[C@@]1(Sc2ccc(C)cc2)CC(=O)N(Cc2cc(C(F)(F)F)cc(C(F)(F)F)c2)[C@@H]1c1ccc(CO)cc1I`
-1.76

Look at this compound and give its reported composite z-score. `COCCOC(=O)N1C(=O)[C@@]2(c3ccccc31)[C@H](C(=O)N1CCc3cc(OC)c(OC)cc3C1)[C@H]1C(=O)O[C@H](c3ccccc3)[C@H](c3ccccc3)N1[C@@H]2c1ccccc1OCCO`
1.03

Look at this compound and give its reported composite z-score. `CO[C@H]1COC(=O)[C@@H](C)COC(=O)[C@H](Cc2ccccc2)NC(=O)CC=C[C@H]1C`
1.26

---

System: Lefty1
METHOD NOTES: Lefty1 binders on small-molecule microarrays, primary screen, biochemical, small-molecule microarray, 635/667 nm fluorescence (AID 1139)
MEASUREMENT PARAMETERS: small-molecule microarray binding, fluorescence 635/667; higher = more signal
Listed compounds paired with reported composite z-score

The following compounds have reported results that may help.
# COMPOUND, RESULT
records = [
    ("COc1cc(CO)cc(I)c1O[C@H]1C=C(C(=O)NCCO)C[C@@H](NCCc2c[nH]c3ccccc23)[C@@H]1O", 0.28),
    ("CO[C@H]1O[C@H](CO)[C@@H](OC(=O)Nc2ccc3c(c2)OCO3)[C@H](OC(=O)Nc2ccccc2)[C@@H]1OC(=O)Nc1ccccc1", 0.823),
    ("O=C1c2ccccc2[C@](Cc2ccccc2I)(C(=O)O)[C@H](c2ccc(CO)cc2)N1C1CCCCC1", 0.4),
]

Query composite z-score on Lefty1 for `CC(C)[Si]1(C(C)C)OCc2cc(C3CC3)nc(-c3ccccc3)c21`
-0.165

Query composite z-score on Lefty1 for `O=C1c2ccccc2[C@](Cc2ccccc2I)(C(=O)NCc2ccccc2)[C@H](c2ccc(CO)cc2)N1Cc1ccccc1C(F)(F)F`
-1.22

Query composite z-score on Lefty1 for `CO[C@H]1COC(=O)CC=C[C@H](C)[C@@H](OC)COC(=O)[C@H](Cc2ccccc2)NC(=O)CC=C[C@@H]1C`
1.59

Query composite z-score on Lefty1 for `COc1ccc(CCNC(=O)[C@@]2(c3ccc([N+](=O)[O-])cc3)CC(=O)N(C(C)C)[C@@H]2c2ccc(CO)cc2)cc1`
-2.2

Query composite z-score on Lefty1 for `CCN1C(C)=C(C(=O)OC)[C@@H](c2ccccc2)N2C(=O)[C@](O)(C(=O)OC)[C@@H](c3ccccc3)C(C(=O)c3ccccc3)=C12`
0.717

Query composite z-score on Lefty1 for CN1C2C=C(c3ccc(CO)cc3)C(C3C(=O)N(C(N)=O)C(=O)C32)C1c1cccs1 (centres undefined)
0.358

---

Tested on: Inhibin beta A chain (activin A)
METHOD NOTES: INHBA (activin A) binders on microarrays, primary screen, biochemical, small-molecule microarray, 635 nm fluorescence scan (AID 1107);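 note: mouse activin A protein probed at 4.33 µg/mL on printed slides; score merges bound-protein fluorescence near 667 nm with spot signal-to-noise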
MEASUREMENT PARAMETERS: small-molecule microarray binding, higher = more signal
MEASUREMENT LABEL: composite z-score
Form: value (number only, do not type unit).

The following compounds have reported results that may help.
# COMPOUND, composite z-score
records = [
    ("C[C@H]1COC(=O)[C@H](Cc2ccccc2)NC(=O)[C@@H](C)COC(=O)[C@H](Cc2ccccc2)NC1=O", -0.687),
    ("COCCCNC(=O)[C@@H]1c2ccccc2C(=O)N(CC23CC4CC(CC(C4)C2)C3)[C@H]1c1ccc(CO)cc1", 0.911),
    ("C[C@@H]1NC(=O)CC=C[C@@H](C)[C@@H]2C=C[C@H](O)[C@@H](COC(=O)[C@H](C)NC(=O)CC=C[C@@H](C)[C@@H]3C=C[C@H](O)[C@@H](COC1=O)O3)O2", 0.0277),
]

Now look at this one.
Look at this compound and give its reported composite z-score. `O=C1c2ccccc2[C@](Cc2ccccc2I)(C(=O)NCC(F)(F)F)[C@H](c2ccc(CO)cc2)N1Cc1ccccc1C(F)(F)F`
-0.33

---

Listed compounds paired with reported z-score
METHOD NOTES: E. coli DRC41 culture turbidity changes, primary screen, E. coli filamentation inducer project, strain DRC41, OD650, 48 h (AID 1152);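 note: E. coli MC1000 strain DRC41 lacking acrAB efflux pump and sulA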
MEASUREMENT PARAMETERS: E. coli DRC41 (acrAB sulA), higher = more signal, called active from +8 up or from −8 down
Form: value (number only, do not type unit).

# COMPOUND, z-score
rows = [
    ("CC(=O)NCCCC[C@@H]1NC(=O)[C@H]2C[C@@H](C(=O)NCCCCCCN(C)C)[C@@H](c3ccc(O)cc3)N2C1=O", -0.233),
    ("COCCOC(=O)N1C(=O)[C@@]2(c3cc(C#CC4=CCCCC4)ccc31)[C@H](c1ccc(O)cc1)N1[C@H](c3ccccc3)[C@H](c3ccccc3)OC(=O)[C@H]1[C@@H]2C(=O)N1CCCCCCC1", 1.65),
    ("O=C1c2ccccc2[C@](Cc2ccccc2I)(C(=O)O)[C@H](c2ccc(CO)cc2)N1C1CCCCC1", 2.84),
    ("C=C(C)[C@@H]1CC=C(C(O)C2C=CC3C(=O)NC(=O)C3N2Nc2ccccn2)CC1 (stereo partly drawn)", -1.56),
    ("Cc1ccc(S[C@]2(C(=O)NCCCN(C)C)CC(=O)N(Cc3ccccc3)[C@@H]2c2ccc(CO)cc2I)cc1", -0.901),
    ("C=CC[C@]1(C(=O)N2CCCCC2)N=C(c2ccc(OCCCO)cc2)O[C@H]1c1ccccc1N=[N+]=[N-]", 0.297),
]

Look at this compound and give its reported z-score. `COCCOC(=O)N1C(=O)[C@@]2(c3cc(C#CCCO)ccc31)[C@H](c1ccc(O)cc1)N1[C@H](c3ccccc3)[C@H](c3ccccc3)OC(=O)[C@H]1[C@@H]2C(=O)Nc1nc2ccccc2s1`
1.45

Look at this compound and give its reported z-score. `CC(C)NC(=O)[C@@]1(Cc2ccccc2I)c2ccccc2C(=O)N(C2CCCCC2)[C@H]1c1ccc(CO)cc1`
0.151

Look at this compound and give its reported z-score. `Cc1ccc(N2C(=O)c3ccccc3[C@@H](C(=O)NCC(F)(F)F)[C@@H]2c2ccc(CO)cc2)nc1`
0.734

Look at this compound and give its reported z-score. C=CCC(OC(C)=O)[C@@H]1[C@@H](N(Cc2cc3ccccc3o2)C(=O)Cc2ccc(F)cc2)c2cc(OCCCO)ccc2N1C(=O)c1ccc(-c2ccccc2)cc1 (stereo partly drawn)
1.66

Look at this compound and give its reported z-score. `[N-]=[N+]=Nc1ccccc1C[C@@]1(C(=O)N2CCOCC2)N=C(c2ccc(OCCCO)cc2)O[C@@H]1c1ccccc1N=[N+]=[N-]`
1.94

Look at this compound and give its reported z-score. `NC(=O)NCC#Cc1ccc2c(c1)[C@]1(C(=O)N2)[C@H](c2ccccc2OCCO)N2[C@H](c3ccccc3)[C@H](c3ccccc3)OC(=O)[C@H]2[C@@H]1C(=O)N1CCN(c2ncccn2)CC1`
2.11

Look at this compound and give its reported z-score. `CO[C@H]1COC(=O)CC=C[C@H](C)COC(=O)[C@@H](OCc2ccccc2)C=C[C@@H]1C`
-0.168

Look at this compound and give its reported z-score. `COC(=O)C(CC#Cc1ccc2c(c1)[C@]1(C(=O)N2)[C@H](C(=O)N2CCCCCCC2)[C@H]2C(=O)O[C@H](c3ccccc3)[C@H](c3ccccc3)N2[C@@H]1c1ccc(O)cc1)C(=O)OC`
0.752

Look at this compound and give its reported z-score. `COc1ccc([Si](C)(C)[C@H]2[C@H](CCO)O[C@@]3(C(=O)N(Cc4ccccc4)c4ccc(N5C(=O)c6cccc7cccc5c67)cc43)[C@@H]2C)cc1`
1.85

---

METHOD NOTES: S. cerevisiae growth modulation with rapamycin, primary screen, strain BY4716, OD600, 96 h (AID 1091); note: test concentration not given here
MEASUREMENT PARAMETERS: called active from +8 up or from −8 down
Activity calls are given as the source filed them.
Field 'call' accepts Y for active, N for inactive

# COMPOUND, GROUP
rows = [
    ("C=C(COC)/C(=C/C[C@@H](OC(C)=O)c1cccc(OCCO)c1)c1cc(C(=O)OC)ccc1OC", "N"),
    ("C=CCC(OC(C)=O)[C@@H]1[C@@H](N(Cc2cc3ccccc3o2)C(=O)c2ccc(C)cc2)c2cc(OCCCO)ccc2N1C(=O)c1ccc2ccccc2n1 (stereo not given in full)", "N"),
    ("O=C(NCc1ccccc1)c1ccc(Br)cc1[N+](=O)[O-]", "N"),
    ("CCCCO[C@H]1C[C@H]2C(Br)=C[C@@]1(CO)C(=O)[C@]21CO1", "N"),
    ("C=CCC(OC(C)=O)[C@@H]1[C@@H](N(Cc2cccc3ccccc23)C(=O)c2ccc(C)cc2)c2cc(OCCCO)ccc2N1C(=O)c1ccc(-c2ccccc2)cc1 (stereo not given in full)", "N"),
]

How was COc1ccc(NN2C(C(O)c3cc(OC)c(OC)c(OC)c3)C=CC3C(=O)N(C4CCCCC4)C(=O)C32)cc1 (stereo not given) classified in this test?
N

How was `C=C(CCCC)C(=O)CC[C@@H](OC(C)=O)c1ccccc1OCCO` classified in this test?
N

How was `C=CCNC(=O)[C@H]1[C@@H]2C(=O)O[C@@H](c3ccccc3)[C@@H](c3ccccc3)N2[C@@H](c2ccccc2OCCO)[C@]12C(=O)N(C(=O)OCCOC)c1ccc(C#CCNC(N)=O)cc12` classified in this test?
N

How was `O=C(O)[C@@H]1Cc2c([nH]c3ccccc23)[C@@H](c2ccccc2)N1` classified in this test?
N

How was `CCOC(=O)C[C@H]1[C@H](OC(=O)c2cc3ccccc3oc2=O)[C@@H](NC(=O)c2ccc3ccccc3c2)c2cc(OCCCO)ccc2N1C(=O)c1ccc2ccccc2n1` classified in this test?
N

How was `CO[C@H]1O[C@H](CO)[C@@H](OC(=O)Nc2ccc3c(c2)OCO3)[C@H](OC(=O)Nc2ccccc2)[C@@H]1OC(=O)Nc1ccccc1` classified in this test?
N

How was `C#CCCCON=C1C[C@@H](O)[C@@H](O)[C@@H]2[C@@H]3C(=O)N(Cc4ccc5c(c4)OCO5)C(=O)[C@@H]3CC[C@H]12` classified in this test?
N

How was `O=C1c2ccccc2[C@](Cc2ccccc2I)(C(=O)O)[C@H](c2ccc(CO)cc2)N1C1CCCCC1` classified in this test?
N

How was `C=C(CCCC)C(=O)CC[C@@H](OC(=O)c1cccnc1)c1cccc(OCCO)c1` classified in this test?
N

How was `COC(=O)c1c(CC[C@@H](CO)NC(=O)N[C@H](Cn2cc(-c3cncn3C)nn2)C(C)C)oc(C(C)=O)c1C(=O)OC` classified in this test?
N

// provenance: PubChem BioAssay
